Molecular target: HDM2 (Homo sapiens)
Construct: Thioredoxin (N); made in house; host or cells: E. coli strain BL21(DE3)Rosetta
Sequence (Q00987 17-125): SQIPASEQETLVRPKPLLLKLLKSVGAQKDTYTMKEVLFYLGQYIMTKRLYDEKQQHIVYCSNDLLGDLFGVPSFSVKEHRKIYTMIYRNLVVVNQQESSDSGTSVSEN
Experiment: HDM2 FRET assay (inhibition of binding of FITC labeled p53-pocket peptide to HDM2)
Conditions: Table 19; read-out: FRET IC50
quantityMeasured: pIC50
Answers are plain numbers, as −log10 of the molar value.

See these solved cases before continuing.
- C[C@H]1CC[C@H](Cn2c(Sc3ccccc3)nc3nc(-c4n[nH]c(=O)o4)nc(-c4cncc(Cl)c4)c32)CC1: 8.50
- C[C@@H](Nc1nc(-c2noc(=O)[nH]2)nc2nc(Sc3ccccc3)n(C[C@H]3CC[C@H](C)CC3)c12)C1CCC1: 9.12

Next molecule, please.
-- ask Fill in pIC50 for record `C[C@H]1CC[C@H](Cn2c(S(=O)(=O)C3CCCC3)nc3nc(-c4n[nH]c(=O)o4)nc(-c4cncc(Cl)c4)c32)CC1`
-- reply 8.23
